TGI listing for selected compounds.
Tested on: SF-539 CNS
Protocol Details: NCI tumour cell line growth inhibition, 48 h
Endpoint Label: TGI

INSERT INTO assay_data (compound, result) VALUES
  ('CCN(CC(=O)O)CC(=O)O', '> 100 µM'),
  ('Cc1ccc(-n2cc(-c3ccc(Cl)cc3)c3c2N=CN2NC(c4ccco4)=NC32)cc1 (centres undefined)', '51.3 µM'),
  ('CC(O)(C(=O)N(O)c1ccc(Cl)cc1)c1ccc(Cl)cc1 (centres undefined)', '> 100 µM'),
  ('CCCSc1cc(Cl)nc(N)n1', '> 100 µM'),
  ('COC(=O)C1=C(C)N2[C@H](C(=O)O)CS[C@@]2(C)[C@H](C(=O)OC)[C@H]1c1cccc([N+](=O)[O-])c1', '> 100 µM'),
  ('CC(=O)OCCOCBr', '> 100 µM'),
  ('CNC(=O)c1cc(Oc2ccc(NC(=O)Nc3ccc(Cl)c(OC(F)(F)F)c3)c(F)c2)ccn1', '8.13 µM'),
  ('CC1OC(n2cc(F)c(=O)[nH]c2=O)C(O[Si](C)(C)C(C)(C)C)C1O[Si](C)(C)C(C)(C)C (centres undefined)', '28.7 µM'),
  ('O=C(Nc1cc(-c2ccccc2)[nH]n1)c1ccc(Cl)cc1', '> 100 µM'),
  ('COc1ccc2c(-c3cc4ccccc4o3)cc(=O)oc2c1', '49.6 µM'),
  ('CC(C)(C)C1(O)Cc2ccccc2C(=O)O1 (centres undefined)', '> 100 µM'),
  ('Clc1ccc(OCc2nnc3n2N=C(c2ccc(Cl)cc2Cl)CS3)c(Cl)c1', '38.7 µM'),
  ('C=C1CC=CC(C)(C)C1C/C=C(\C)C(O)CBr (centres undefined)', '> 100 µM'),
  ('C[C@@H]1C(=O)CC2(O)[C@@]13C[C@@H](OC(=O)[C@@H]3O)[C@@H](C)[C@@]21COC1=O (some centres undefined)', '> 100 µM'),
  ('N#CC(C#N)=Cc1cccc(Oc2ccccc2)c1', '35.1 µM'),
  ('C/C(=N\Nc1nc2ccccc2s1)c1cccnn1', '17.7 µM'),
  ('Cc1ccc(C(=O)c2[nH]c(Nc3cc(C)ccn3)c(C(=S)Nc3ccccc3)c2N)cc1', '> 100 µM'),
  ('Cc1cccc(NC(Nc2cccc(C)c2)=C(C(Cl)=C(Cl)Cl)[N+](=O)[O-])c1', '23.4 µM'),
  ('CCNC(=S)N/N=C/c1ccccn1', '29.7 µM'),
  ('COC(=O)C1=C(C(=O)OC)C2(C)CCC(=O)C1O2 (centres undefined)', '> 10 µM'),
  ('CN(C)CCNC(=O)Nc1c(C#N)[n+]([O-])c2cc(Cl)c(Cl)cc2[n+]1[O-]', '47.3 µM'),
  ('NC(=S)N=Nc1c(O)cc(Nc2ccc(Cl)cc2Cl)c2ccccc12', '53.4 µM'),
  ('O=c1c2ccccc2c2c3c1cccc3c1cccc3c(=O)c4ccccc4c2c31', '> 100 µM'),
  ('CCOC(=O)Cc1nc(/C(C#N)=C/c2ccco2)[nH]c(=O)c1C#N', '> 100 µM'),
  ('COc1ccc(/C=C/C(=O)c2sc(-n3nc(-c4ccccc4)cc3-c3ccccc3)nc2C)cc1OC', '81.1 µM'),
  ('O=C(N/N=C/c1ccc(Cl)cc1Cl)c1ccccc1Nc1cccc(C(F)(F)F)c1', '12.8 µM'),
  ('NC(CCSCC(F)F)C(=O)O (centres undefined)', '> 100 µM'),
  ('NC(=O)NC(=NCc1ccccc1)NCc1ccccc1', '> 100 µM'),
  ('CCc1cc(=O)n(/C(C)=C/c2ccccc2)n1C', '> 100 µM'),
  ('CCOC(=O)/C(=C/c1ccco1)P(=O)(OCC)OCC', '> 100 µM'),
  ('O=C1N[C@@H](O)[C@@H]2ON=C(c3ccccc3)[C@H]12', '> 100 µM'),
  ('O=CN(O)CC(=O)O', '> 100 µM'),
  ('COc1ccccc1C(=O)c1ccc2ccccc2c1', '25.8 µM'),
  ('c1ccc([P+](Cc2csnn2)(c2ccccc2)c2ccccc2)cc1', '> 100 µM'),
  ('NNC(=O)c1cccc2c1Oc1ccccc1S2', '> 100 µM'),
  ('Cc1sc(C)c(-c2ccc(CO)o2)c1-c1ccc(CO)o1', '> 100 µM'),
  ('N#Cc1c(N)c(C(=O)O)nn(-c2cccc(C(F)(F)F)c2)c1=O', '> 100 µM'),
  ('O=C(CN=C(CN(c1ccccc1)c1ccccc1)Oc1c(Cl)cc(Cl)cc1Cl)n1cnc2ccccc21', '> 100 µM'),
  ('COc1ccc2c(c1)C=CC(C#N)N2C(=O)c1ccccc1 (centres undefined)', '0.0238 µM'),
  ('C=C1CC2C(=O)N(c3ccccc3)C(=O)C2CC1n1[nH]c(=O)n(Cc2ccccc2)c1=O (centres undefined)', '> 100 µM'),
  ('CCOC(=O)c1ccc(C(=O)/C(C(=O)OC(C)(C)C)=C2\CCCN2C)n1C', '> 100 µM'),
  ('CN(C)C(=S)/N=c1\ss/c(=N\S(=O)(=O)c2ccccc2)n1-c1ccccc1', '> 100 µM'),
  ('COc1cc(/C=C/c2cc(=O)cc(/C=C/c3ccc(O)c(OC)c3)o2)ccc1O', '> 100 µM'),
  ('CC1=C(C(=O)NNC(=O)CC#N)CC(C(=O)NNC(=O)CC#N)=C(C)N1', '> 100 µM');

----------
Test system: COLO 205 colon
Protocol Details: NCI tumour cell line growth inhibition, 48 h
Below, each of the compounds is paired with its reported TGI value.
Endpoint Label: TGI

INSERT INTO measurements (compound, result) VALUES
  ('C=C1CC=CC(C)(C)C1C/C=C(\C)C(O)CBr (stereo not drawn)', '> 100 µM'),
  ('O=C(Nc1ccc(S(=O)(=O)N[C@@H](C(=O)O)c2ccccc2)cc1)c1ccc(F)cc1', '> 100 µM'),
  ('NC1=NC(=O)C(CC(=O)Nc2ccc([N+](=O)[O-])cc2[N+](=O)[O-])S1 (stereo not drawn)', '> 100 µM'),
  ('COC(=O)C1=C(C)N2[C@H](C(=O)O)CS[C@@]2(C)[C@H](C(=O)OC)[C@H]1c1cccc([N+](=O)[O-])c1', '> 100 µM'),
  ('O=c1cc(-c2ccccc2F)[nH]c2cc3c(cc12)OCO3', '0.281 µM'),
  ('Cc1ccc(C(=O)c2[nH]c(Nc3cc(C)ccn3)c(C(=S)Nc3ccccc3)c2N)cc1', '> 100 µM'),
  ('COc1ccc(C2=NC(C)(C)CO2)cc1', '> 100 µM'),
  ('CCN(CCO)CCNc1ccc(C)c2sc3cc(Cl)ccc3c(=O)c12', '2.62 µM');

----------
Test system: NCI-H522 lung
Protocol Details: NCI tumour cell line growth inhibition, 48 h
Endpoint Label: TGI

INSERT INTO assay_data (smiles_record, result) VALUES
  ('c1ccc([P+](Cc2csnn2)(c2ccccc2)c2ccccc2)cc1', '> 100 µM'),
  ('O=c1c2ccccc2c2c3c1cccc3c1cccc3c(=O)c4ccccc4c2c31', '> 100 µM'),
  ('CCOC(=O)Cc1nn2c(=O)cc(C)nc2s1', '> 100 µM'),
  ('COc1cc(/C=C\c2ccc(O)cc2)cc(OC)c1OC', '> 22.4 µM'),
  ('CNc1nc(NC2CCCC2)nc(Sc2ccc(OC)cc2)n1', '> 10 µM'),
  ('CN(C)c1nc(-c2cccs2)n2nc(-c3ccc(Cl)cc3)cc2n1', '> 100 µM');

----------
Each item that follows carries a reported TGI.
Test system: OVCAR-5 ovarian
Protocol Details: NCI tumour cell line growth inhibition, 48 h
Endpoint Label: TGI

INSERT INTO results (molecule, result) VALUES
  ('O=C1N[C@@H](O)[C@@H]2ON=C(c3ccccc3)[C@H]12', '> 100 µM'),
  ('CC(C)(C)c1nc2c(o1)C(=Nc1ccc(F)cc1)c1ccccc1C2=O', '34.3 µM'),
  ('Cc1ccc(C(=O)CC(Sc2cccc(Cl)c2Cl)c2ccc(Cl)cc2)cc1C (stereo not given)', '59.8 µM'),
  ('CN1CCN(Cc2ccc(NC(=O)c3ccc(C(C)(C)C)c(C#Cc4cnc5cccnn45)c3)cc2C(F)(F)F)CC1', '7.18 µM'),
  ('Cc1cc(C)nc(NS(=O)(=O)c2ccc(Nc3c4ccccc4nc4c(C(=O)N5CCN(CCOS(C)(=O)=O)CC5)ccc(Cl)c34)cc2)n1', '> 100 µM'),
  ('Cc1ncc([N+](=O)[O-])n1CCNC(=O)CCCCn1ccnc1[N+](=O)[O-]', '> 100 µM'),
  ('CCOC(=O)Cc1nn2c(=O)cc(C)nc2s1', '> 100 µM'),
  ('COc1ccc2c(-c3cc4ccccc4o3)cc(=O)oc2c1', '> 100 µM'),
  ('CNC(=O)c1cn(C[C@H](F)CCc2ccc(NC(=O)Cc3cc(OC4CC(F)(F)C4)cc(C)n3)nn2)nn1', '> 100 µM'),
  ('NC(=S)N=Nc1c(O)cc(Nc2ccc(Cl)cc2Cl)c2ccccc12', '> 100 µM'),
  ('COC(=O)C1=C(C(=O)OC)C2(C)CCC(=O)C1O2 (stereo not given)', '> 10 µM'),
  ('c1ccc([P+](Cc2csnn2)(c2ccccc2)c2ccccc2)cc1', '> 100 µM'),
  ('CC(=O)OCCOCBr', '> 100 µM'),
  ('C=C(C)[C@@H]1CC[C@@]2(C(=O)O)CC[C@]3(C)C(CCC4[C@@]5(C)CCC(OS(=O)(=O)c6ccccc6)C(C)(C)C5CC[C@]43C)C12 (stereo not given in full)', '28.7 µM'),
  ('CC1(C)[C@@H]2C[C@H]1c1cnc(-c3ccccn3)cc1[C@H]2C(O)[C@@H]1c2cc(-c3ccccn3)ncc2[C@H]2C[C@@H]1C2(C)C (stereo not given in full)', '18 µM'),
  ('CCC1(CC)C(=O)NC(=S)N=C1N', '> 100 µM'),
  ('O=c1cc(-c2ccccc2F)[nH]c2cc3c(cc12)OCO3', '> 100 µM'),
  ('O=C(/C=C1\C[C@H]2C=Nc3ccccc3C(=O)N2C1)NCCCCCNC(=O)/C=C1\C[C@H]2C=Nc3ccccc3C(=O)N2C1', '33.7 µM'),
  ('N/C(CSCCSC/C(N)=N/O)=N\O', '> 100 µM'),
  ('CN1c2ccccc2C(=O)NC12CCN(CC1COc3ccccc3O1)CC2 (stereo not given)', '> 100 µM'),
  ('C=CC(=O)Nc1cccc(Nc2nc(Nc3ccc(OCCOC)cc3)ncc2F)c1', '21 µM'),
  ('CCOC(=O)C(NC(=O)c1ccc(N=NN(C)C)cc1)C(C)C (stereo not given)', '> 100 µM'),
  ('CCC1C(=O)OCc2c1cc1n(c2=O)CCC12OCCO2 (stereo not given)', '> 100 µM'),
  ('O=P(O)(O)C(O)(Cn1ccnc1)P(=O)(O)O', '> 100 µM'),
  ('CNc1ccc2c(c1)Cc1ccccc1-2', '> 100 µM'),
  ('Nc1ccc(SC23CC4CC(CC(C4)C2)C3)cc1', '> 100 µM'),
  ('CC(C)(C)c1ccc2c(c1)OCc1n[nH]c(n1)COc1cc(C(C)(C)C)ccc1OCCOCCO2', '22.6 µM'),
  ('Brc1ccc2c(c1)-c1nc3c(cc1CC2)CCc1ccc(Br)cc1-3', '> 100 µM'),
  ('CCOC(=O)/C(=C/c1ccco1)P(=O)(OCC)OCC', '> 100 µM'),
  ('O=C(c1ccccc1)[C@H]1Nc2cnccc2C2c3ccccc3CC21 (stereo not given in full)', '74.1 µM'),
  ('COc1cc(/C=C/C(=N\NC(=O)c2ccccc2)c2sc(Nc3ccc(Cl)c(Cl)c3)nc2C)ccc1O', '81.1 µM'),
  ('CCn1c(-c2nonc2N)nc2ccc(F)cc21', '> 25 µM'),
  ('COc1cc2c3c(n(CCCN4CCC(N)CC4)c(=O)c2cc1OC)-c1cc2c(cc1C3=O)OCO2', '5.15 µM'),
  ('COC(=O)/C=C\S/C(=C(/c1ccccc1)n1ccc(C(=O)OC)n1)c1ccccc1', '> 100 µM'),
  ('Cc1c(C(=O)NN)nnn1-c1ccnc2c(C(F)(F)F)cccc12', '> 100 µM'),
  ('COc1ccc(C2=NC(C)(C)CO2)cc1', '> 100 µM'),
  ('CCCSc1cc(Cl)nc(N)n1', '> 100 µM'),
  ('C=CCOc1c(Br)cc(Br)cc1Br', '> 100 µM'),
  ('C/C(=N\Nc1nc2ccccc2s1)c1cccnn1', '> 100 µM'),
  ('CCOC(=O)Cc1nc(/C(C#N)=C/c2ccco2)[nH]c(=O)c1C#N', '> 100 µM');

Reference source for all entries: PubChem BioAssay (NCI)
